test system: Vero E6; test: cell viability relative to DMSO; higher = less toxic; conditions: 72 h; 1000 nM
result.type: cell viability
Kindly write the number and append the unit.

# assay system Vero E6: give cell viability of O=C(CCCN1CCC2(CC1)C(=O)N(Cc1cccc(F)c1)CN2c1ccccc1)c1ccc(F)cc1 [3'-fluorobenzylspiperone]
95.1%

# assay system Vero E6: give cell viability of CN(C)c1cccc(Oc2cnc(Nc3cccc(O)c3)nc2)c1 [SEN-1269]
89.2%

# assay system Vero E6: give cell viability of C[C@@H](CN1CC(=O)NC(=O)C1)N1CC(=O)NC(=O)C1 [dexrazoxane]
93.8%

# assay system Vero E6: give cell viability of O=C(NCc1ccc(OC(F)(F)F)cc1)C1c2ccccc2C(=O)N1C1CCOCC1 (stereo not drawn) [NAV-26]
98.9%

# assay system Vero E6: give cell viability of C[C@@H](C(=O)O)c1ccc(-c2ccccc2)c(F)c1 (racemic) [flurbiprofen-(+/-)]
95.7%

# assay system Vero E6: give cell viability of NCCc1cc[nH]n1 [betazole]
106%

# assay system Vero E6: give cell viability of CC(C)[C@H](N)C(=O)OCC(CO)OCn1cnc2c(=O)nc(N)[nH]c21 (mixture of isomers) [valganciclovir]
97.4%

# assay system Vero E6: give cell viability of N#Cc1nn(-c2c(Cl)cc(C(F)(F)F)cc2Cl)c(N)c1[S+]([O-])C(F)(F)F (stereo not drawn) [fipronil]
101%

Ref: the supplement of paper PMC13380429
